STUDY_TARGET: HIV-1 envelope glycoprotein (gp120) of virus 7141 (HIV-1)
PROTOCOL_TEXT: cell-based or functional assay
API: label(entry) gives Y if the entry's Neutralization IC50 is strictly smaller than 20 mg/L; on equality or larger values it gives N.

(Q) Given the entry 3.1.7-1 (antibody, human IgG1, kappa, V domains shown) VH: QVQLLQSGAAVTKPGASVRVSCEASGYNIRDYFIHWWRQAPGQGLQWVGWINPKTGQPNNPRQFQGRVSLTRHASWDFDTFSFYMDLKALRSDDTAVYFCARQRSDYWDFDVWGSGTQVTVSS VL: DIQMTQSPSSLSARVGDRATITCQANGYLNWYQQRRGKAPKLLIYDGSKLERGVPARFSGSRWGQEYTLTISSLQPEDVATYFCQVYEFFGPGTRLDLKR , would its reported Neutralization IC50 be below 20 mg/L?
(A) Y

(Q) Given the entry 3.1.12-1 (antibody, human IgG1, kappa, V domains shown) VH: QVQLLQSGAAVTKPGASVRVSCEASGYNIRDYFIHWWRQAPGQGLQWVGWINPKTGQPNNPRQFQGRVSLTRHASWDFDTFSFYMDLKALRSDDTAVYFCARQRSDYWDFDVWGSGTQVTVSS VL: DIQMTQSPSSLSARVGDTATITCQANGYLNWYQQRRGKAPKLLIYDGSKLERGVPARFSGRRWGQEYILTINNLQPEDVATYFCQVYEFFGPGTRLDLKR , would its reported Neutralization IC50 be below 20 mg/L?
(A) N

(Q) Given the entry 2.2.12-1 (antibody, human IgG1, kappa, V domains shown) VH: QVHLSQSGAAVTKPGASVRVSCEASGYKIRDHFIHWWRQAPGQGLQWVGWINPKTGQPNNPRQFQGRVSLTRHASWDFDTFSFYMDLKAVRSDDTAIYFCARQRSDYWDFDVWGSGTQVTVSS VL: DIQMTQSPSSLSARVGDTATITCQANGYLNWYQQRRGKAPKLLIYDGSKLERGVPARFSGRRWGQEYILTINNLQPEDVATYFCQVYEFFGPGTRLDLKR , would its reported Neutralization IC50 be below 20 mg/L?
(A) Y

(Q) Given the entry 1.1.102-1 (antibody, human IgG1, kappa, V domains shown) VH: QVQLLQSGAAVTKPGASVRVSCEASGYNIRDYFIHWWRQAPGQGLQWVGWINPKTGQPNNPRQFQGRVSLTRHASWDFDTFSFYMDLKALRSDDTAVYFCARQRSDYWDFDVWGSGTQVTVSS VL: DIQMTQSPSSLSASVGDRATITCQANGYLNWYQQRRGKAPKLLIYDGSKLERGVPSRFSGSRWGQEYHLTISSLQPEDIATYFCQVYEFFGPGTRLDLKR , would its reported Neutralization IC50 be below 20 mg/L?
(A) N

(Q) Given the entry 2.2.17-1 (antibody, human IgG1, kappa, V domains shown) VH: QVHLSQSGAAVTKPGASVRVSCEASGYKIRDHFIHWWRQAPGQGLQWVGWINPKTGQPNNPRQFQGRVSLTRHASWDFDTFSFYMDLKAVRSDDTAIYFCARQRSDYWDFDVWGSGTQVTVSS VL: DIQMTQSPSSLSARVGDTATITCQANGYLNWYQQRRGKAPKLLIYDGSKLERGVPARFSGRRWGQEYHLTINNLQPEDVATYFCQVYEFFGPGTRLDLKR , would its reported Neutralization IC50 be below 20 mg/L?
(A) Y
